Hello, the source for this data is ChEMBL document CHEMBL1132489, in case you need it.

Tested on: Retinoic acid receptor alpha (Homo sapiens, UniProt P10276)
Sequence (P10276 whole entry): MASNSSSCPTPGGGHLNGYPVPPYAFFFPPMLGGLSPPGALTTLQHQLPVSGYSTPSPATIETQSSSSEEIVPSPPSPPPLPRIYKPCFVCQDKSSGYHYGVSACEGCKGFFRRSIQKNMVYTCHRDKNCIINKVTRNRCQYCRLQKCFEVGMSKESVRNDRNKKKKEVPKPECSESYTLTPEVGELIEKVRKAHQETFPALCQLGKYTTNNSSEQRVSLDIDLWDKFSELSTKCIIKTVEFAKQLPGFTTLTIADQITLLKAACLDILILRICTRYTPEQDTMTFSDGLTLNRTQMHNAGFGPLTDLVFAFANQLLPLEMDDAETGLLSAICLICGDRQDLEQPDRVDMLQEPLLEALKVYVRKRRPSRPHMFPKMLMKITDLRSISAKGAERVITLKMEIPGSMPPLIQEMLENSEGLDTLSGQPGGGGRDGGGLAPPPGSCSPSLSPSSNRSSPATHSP
pKd: −log10 of the molar value.
Short version: pKd at least 5 is Condition met, less is Condition not met.

Q: Could you tell me if the measured pKd of C/C(=C\c1cc(C(=O)O)no1)c1ccc2c(c1)C(C)(C)CCC2(C)C reaches 5 or more?
Ans: Condition met

Q: Could you tell me if the measured pKd of Cc1cc2c(cc1-c1cc(C(=O)O)no1)C(C)(C)C(C)CC2(C)C (stereo not given) reaches 5 or more?
Ans: Condition met

Q: Could you tell me if the measured pKd of C/C(=C/c1cc(C(=O)O)no1)c1ccc2c(c1)C(C)(C)CCC2(C)C reaches 5 or more?
Ans: Condition met

Q: Could you tell me if the measured pKd of CC1(C)CCC(C)(C)c2cc(-c3cc(C(=O)O)no3)ccc21 reaches 5 or more?
Ans: Condition not met

----------
Hi there, I'd appreciate the recorded Expression for every entry that follows.
Tested on: HL-60
Assay overview: Granulocytic marker CD11b expression in HL-60 cell differentiation assay
Format: functional, Homo sapiens
Don't forget the unit after the number, please.

Q: Look up Expression: C/C(=C\c1cc(C(=O)O)no1)c1ccc2c(c1)C(C)(C)CCC2(C)C
Ans: 12.2%

Q: Look up Expression: Cc1cc2c(cc1-c1cc(C(=O)O)no1)C(C)(C)CCC2(C)C
Ans: 0%

Q: Look up Expression: CC1(C)CCC(C)(C)c2cc(-c3cc(C(=O)O)no3)ccc21
Ans: 0%

Q: Look up Expression: CC1=C(/C=C/C(C)=C/C=C/C(C)=C/C(=O)O)C(C)(C)CCC1
Ans: 97.3%

Q: Look up Expression: CC(=O)OC/C=C(\C)c1cc(-c2ccc3c(c2)C(C)(C)CCC3(C)C)no1
Ans: 0%

Q: Look up Expression: Cc1cc2c(cc1-c1cc(C(=O)O)no1)C(C)(C)C(C)CC2(C)C (stereo unspecified)
Ans: 0.4%

----------
Hi there, I'd appreciate the recorded Expression for every entry that follows.
Tested on: HL-60
Assay overview: Granulocytic marker CD11b expression in HL-60 cell differentiation assay
Assay type: functional, Homo sapiens
Response body: numeric value in %, unit text excluded.

Q: Look up Expression: Cc1cc2c(cc1-c1cc(C(=O)O)no1)C(C)(C)C(C)CC2(C)C (stereo unspecified)
Ans: 0

Q: Look up Expression: CC1(C)CCC(C)(C)c2cc(-c3cc(C(=O)O)no3)ccc21
Ans: 0

Q: Look up Expression: C/C(=C\c1cc(C(=O)O)no1)c1ccc2c(c1)C(C)(C)CCC2(C)C
Ans: 13

Q: Look up Expression: CC1=C(/C=C/C(C)=C/C=C/C(C)=C/C(=O)O)C(C)(C)CCC1
Ans: 98.2

Q: Look up Expression: Cc1cc2c(cc1-c1cc(C(=O)O)no1)C(C)(C)CCC2(C)C
Ans: 0

Q: Look up Expression: CC(=O)OC/C=C(\C)c1cc(-c2ccc3c(c2)C(C)(C)CCC3(C)C)no1
Ans: 0

----------
Readout type: pKd
Units for pKd: none; it is -log10 of a concentration expressed in mol/L.

Q: State its pKd on Retinoic acid receptor gamma (Homo sapiens, UniProt P13631): C/C(=C\c1cc(C(=O)O)no1)c1ccc2c(c1)C(C)(C)CCC2(C)C
Sequence (P13631 whole entry): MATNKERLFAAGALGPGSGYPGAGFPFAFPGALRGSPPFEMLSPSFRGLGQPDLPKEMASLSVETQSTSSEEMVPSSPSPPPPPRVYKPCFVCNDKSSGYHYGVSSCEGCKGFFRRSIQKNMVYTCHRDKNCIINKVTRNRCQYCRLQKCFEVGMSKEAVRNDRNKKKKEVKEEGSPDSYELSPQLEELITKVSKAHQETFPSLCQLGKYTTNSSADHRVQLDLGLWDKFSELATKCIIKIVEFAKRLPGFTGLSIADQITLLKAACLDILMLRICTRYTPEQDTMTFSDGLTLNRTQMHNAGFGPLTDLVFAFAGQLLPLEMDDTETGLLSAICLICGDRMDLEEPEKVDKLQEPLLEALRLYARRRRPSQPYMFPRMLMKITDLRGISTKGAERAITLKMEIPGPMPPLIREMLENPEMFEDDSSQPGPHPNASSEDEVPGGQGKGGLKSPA
Ans: 5.70

Q: State its pKd on Retinoic acid receptor gamma (Homo sapiens, UniProt P13631): CC1(C)CCC(C)(C)c2cc(-c3cc(C(=O)O)no3)ccc21
Ans: 5.06

Q: State its pKd on Retinoic acid receptor gamma (Homo sapiens, UniProt P13631): C/C(=C/c1cc(C(=O)O)no1)c1ccc2c(c1)C(C)(C)CCC2(C)C
Ans: 5.15

Q: State its pKd on Retinoic acid receptor gamma (Homo sapiens, UniProt P13631): Cc1cc2c(cc1-c1cc(C(=O)O)no1)C(C)(C)C(C)CC2(C)C (stereo not given)
Ans: 5.21
